Origin of values: patent US20260209345A1

- study target: T1, recombinant LILRB1 ECD (human, UniProt Q8NHL6 24-461)
- T1 construct: also called biotinylated LILRB1 ECD
- T1 sequence (Q8NHL6 24-461 limits assumed): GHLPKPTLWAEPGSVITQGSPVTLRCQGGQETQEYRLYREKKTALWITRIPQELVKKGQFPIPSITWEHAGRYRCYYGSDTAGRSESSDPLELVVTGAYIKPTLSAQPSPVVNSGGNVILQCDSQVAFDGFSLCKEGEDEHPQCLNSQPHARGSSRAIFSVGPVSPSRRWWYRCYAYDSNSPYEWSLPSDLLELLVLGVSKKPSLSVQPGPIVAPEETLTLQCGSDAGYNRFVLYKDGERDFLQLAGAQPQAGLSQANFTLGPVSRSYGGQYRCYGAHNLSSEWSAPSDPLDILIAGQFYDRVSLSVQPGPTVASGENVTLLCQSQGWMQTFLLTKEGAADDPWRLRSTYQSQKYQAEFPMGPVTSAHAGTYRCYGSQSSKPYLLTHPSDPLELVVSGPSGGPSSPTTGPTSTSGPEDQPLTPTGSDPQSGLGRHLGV
- test protocol: BLI, IgG on AHC sensor, ECD in solution
endpoint name: pKd
The meaning of pKd here: minus log10 of the concentration in molar units.

binder="A-022 (antibody, V domains shown, tested as IgG) VH: QVQLVQSGAEVKKPGSSVKVSCKASGGTFGGSAISWVRQAPGQGLEWMGGIVLAYSTSVYAQKFQGRVTITADESTSTAYMELSSLRSEDTAVYYCAKGPPVGSSSWYTDWYFDLWGRGTLVTVSS VL: SYELTQPPSVSVSPGQTASITCSGDKLGDKYASWYQQKPGQSPVLVIYQDSKRPSGIPERFSGSNSGNTATLTISGTQAEDEADYYCLSYGAHSHGVVFGGGTKLTVL" numeric_readout=8.28
binder="A-040 (antibody, V domains shown, tested as IgG) VH: QVQLVQSGAEVKKPGSSVKVSCKASGGTFSSYAISWVRQAPGQGLEWMGGIIPIFGTANYAQKFQGRVTITADESTSTAYMELSSLRSEDTAVYYCAKGPPVGSSSWYTDWYFDLWGRGTLVTVSS VL: SYELTQPPSVSVSPGQTASITCSGDKLGDKYASWYQQKPGQSPVLVIYQDSKRPSGIPERFSGSNSGNTATLTISGTQAEDEADYYCSLYGPAHTGVFGGGTKLTVL" numeric_readout=8.18
binder="A-010 (antibody, V domains shown) VH: QVQLVQSGAEVKKPGSSVKVSCKASGGTFQSQAFAWVRQAPGQGLEWMGSIIPGFSTANYAQKFQGRVTITADESTSTAYMELSSLRSEDTAVYYCAKDLGTYSSGWPYYYGMDVWGQGTTVTVSS VL: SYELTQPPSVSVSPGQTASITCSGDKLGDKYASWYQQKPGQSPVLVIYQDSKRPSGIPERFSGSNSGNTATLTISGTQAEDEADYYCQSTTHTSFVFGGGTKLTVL" numeric_readout=8.35
binder="A-008 (antibody, V domains shown, tested as IgG) VH: QVQLVQSGAEVKKPGSSVKVSCKASGGTFAESAILWVRQAPGQGLEWMGGIVPSFYSANYAQKFQGRVTITADESTSTAYMELSSLRSEDTAVYYCAKDLGTYSSGWPYYYGMDVWGQGTTVTVSS VL: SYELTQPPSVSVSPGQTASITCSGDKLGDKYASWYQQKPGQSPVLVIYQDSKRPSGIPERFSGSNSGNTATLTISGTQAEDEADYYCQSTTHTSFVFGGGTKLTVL" numeric_readout=8.13
binder="A-041 (antibody, V domains shown, tested as IgG) VH: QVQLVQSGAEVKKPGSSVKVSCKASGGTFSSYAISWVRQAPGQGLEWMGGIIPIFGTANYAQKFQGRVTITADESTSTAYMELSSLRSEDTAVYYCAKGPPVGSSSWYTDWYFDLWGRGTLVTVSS VL: SYELTQPPSVSVSPGQTASITCSGDKLGDKYASWYQQKPGQSPVLVIYQDSKRPSGIPERFSGSNSGNTATLTISGTQAEDEADYYCSSYGSGLTVVFGGGTKLTVL" numeric_readout=7.76

# context switch: different binder, same pKd
Ask: Can you share its pKd? I mean this binder: A-028 (antibody, V domains shown, tested as IgG) VH: QVQLVQSGAEVKKPGSSVKVSCKASGYSFSEHAMSWVRQAPGQGLEWMGGIIPKFSTSVFAQKFQGRVTITADESTSTAYMELSSLRSEDTAVYYCAKGPPVGSSSWYTDWYFDLWGRGTLVTVSS VL: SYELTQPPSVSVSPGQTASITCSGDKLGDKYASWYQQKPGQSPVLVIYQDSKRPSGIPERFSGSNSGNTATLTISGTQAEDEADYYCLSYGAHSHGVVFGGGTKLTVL
Reply: 8.74
